Biological target: AhR (Homo sapiens (Human), UniProt P35869)
Sequence (P35869 11-848): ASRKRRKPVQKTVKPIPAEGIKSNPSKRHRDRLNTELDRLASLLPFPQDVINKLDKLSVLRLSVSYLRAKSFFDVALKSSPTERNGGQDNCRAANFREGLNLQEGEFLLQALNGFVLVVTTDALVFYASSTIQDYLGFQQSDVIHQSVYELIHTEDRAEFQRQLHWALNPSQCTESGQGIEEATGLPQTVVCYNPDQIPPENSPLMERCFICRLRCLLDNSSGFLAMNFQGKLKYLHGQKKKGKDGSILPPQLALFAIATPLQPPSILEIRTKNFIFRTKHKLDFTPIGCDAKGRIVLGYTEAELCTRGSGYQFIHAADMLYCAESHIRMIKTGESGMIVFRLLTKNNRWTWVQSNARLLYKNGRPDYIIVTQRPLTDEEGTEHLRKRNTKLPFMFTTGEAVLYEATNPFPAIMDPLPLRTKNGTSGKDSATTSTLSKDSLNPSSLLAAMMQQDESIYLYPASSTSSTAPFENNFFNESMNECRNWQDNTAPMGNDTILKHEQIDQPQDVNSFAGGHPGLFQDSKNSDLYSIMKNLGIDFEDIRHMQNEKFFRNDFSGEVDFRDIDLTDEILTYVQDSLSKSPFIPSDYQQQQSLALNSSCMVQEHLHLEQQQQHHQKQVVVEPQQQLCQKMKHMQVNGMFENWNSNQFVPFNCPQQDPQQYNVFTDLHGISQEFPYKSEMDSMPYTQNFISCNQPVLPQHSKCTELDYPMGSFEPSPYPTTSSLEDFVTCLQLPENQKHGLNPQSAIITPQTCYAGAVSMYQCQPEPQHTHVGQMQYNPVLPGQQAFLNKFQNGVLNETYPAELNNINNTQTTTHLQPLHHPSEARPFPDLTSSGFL
Assay: AhR antagonism in U937 cells (Promega P450-Glo assay)
Conditions: inhibition of agonist (KYNA) response, CYP1A1 activity readout (Luciferin-CEE), 24 hrs, arithmetic mean of pIC50
Binning rule for recorded IC50: bin A: < 6 nM; bin B: ≥ 6 nM and < 10 nM; bin C: ≥ 10 nM

# Molecule, Category
data = [
    ("NCC(=O)N1CCc2c(nc(-c3cncc(F)c3)nc2NCCc2c[nH]c3ccccc23)C1", "bin B"),
    ("Fc1cncc(-c2nc3c(c(NCCc4c[nH]c5ccccc45)n2)CCNCC3)c1 [Example 17a]", "bin C"),
    ("Fc1cncc(-c2nc3c(c(NCCc4c[nH]c5cc(F)ccc45)n2)CCNC3)c1", "bin B"),
    ("CC(=O)N1CCc2c(nc(-c3cncc(F)c3)nc2NCCc2c[nH]c3ccccc23)C1", "bin A"),
    ("CC1(C)NCCc2c(NCCc3c[nH]c4ccccc34)nc(-c3cncc(F)c3)nc21 [Example 18b]", "bin C"),
]

Hi there! Could you help me figure out the category for "N#CCN1CCc2c(nc(-c3cncc(F)c3)nc2NCCc2c[nH]c3ccccc23)C1" please? bin B

Please classify: CC1(C)c2nc(-c3cncc(F)c3)nc(NCCc3c[nH]c4ccccc34)c2CCN1Cc1ccccc1 [Example 18a] bin A

Into which bin does this molecule go? CCN1CCc2nc(-c3cncc(F)c3)nc(NCCc3c[nH]c4ccccc34)c2CC1 [Example 17b] bin C

Any idea which band "CN1CCc2c(nc(-c3cncc(F)c3)nc2NCCc2c[nH]c3ccccc23)C1" is in? bin A

Band for "Fc1cncc(-c2nc3c(c(NCCc4c[nH]c5ccccc45)n2)CNC3)c1" ? bin C

Which IC50 band matches "CN(C)C(=O)N1CCc2c(nc(-c3cncc(F)c3)nc2NCCc2c[nH]c3ccccc23)C1" ? bin A

====

CYP1A1 (Homo sapiens (Human), UniProt P04798): reported pIC50 for various molecules.
Sequence (P04798 whole entry): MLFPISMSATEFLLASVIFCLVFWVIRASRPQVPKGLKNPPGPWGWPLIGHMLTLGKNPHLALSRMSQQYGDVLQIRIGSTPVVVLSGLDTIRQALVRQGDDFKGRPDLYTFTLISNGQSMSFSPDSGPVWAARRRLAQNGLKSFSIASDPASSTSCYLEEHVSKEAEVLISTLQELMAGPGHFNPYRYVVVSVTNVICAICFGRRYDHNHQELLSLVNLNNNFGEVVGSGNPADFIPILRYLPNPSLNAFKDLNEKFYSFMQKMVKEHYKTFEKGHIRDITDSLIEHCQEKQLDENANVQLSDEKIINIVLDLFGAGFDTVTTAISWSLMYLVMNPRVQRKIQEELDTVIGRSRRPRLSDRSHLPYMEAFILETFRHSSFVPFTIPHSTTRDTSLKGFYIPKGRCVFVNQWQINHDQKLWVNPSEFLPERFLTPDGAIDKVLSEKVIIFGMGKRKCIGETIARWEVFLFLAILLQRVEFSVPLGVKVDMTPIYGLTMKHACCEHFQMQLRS
Give bare numbers, as −log10 of the molar value.

# Molecule, Measured Result
records = [
    ("NCC(=O)N1CCc2c(nc(-c3cncc(F)c3)nc2NCCc2c[nH]c3ccccc23)C1 [Example 16]", 7.00),
]

Now for the molecule whose pIC50 we want.
Recorded pIC50 of Clc1cncc(-c2nc3c(c(NCCc4c[nH]c5ccccc45)n2)CCNC3)c1 [Example 22] , please. 6.50

====

Provide the recorded log10(IC50) for the entries that follow.
Target: AhR (Homo sapiens (Human), UniProt P35869)
Test: AhR antagonism in U937 cells (Promega P450-Glo assay)
Details: inhibition of agonist (KYNA) response, CYP1A1 activity readout (Luciferin-CEE), 24 hrs, arithmetic mean of pIC50
# values: log10(IC50), units nM

// below: answered molecules
# Substance Smiles, Measured Property, Measured Result
data = [
    ("CS(=O)(=O)N1CCc2c(nc(-c3cncc(F)c3)nc2NCCc2c[nH]c3ccccc23)C1", "log10(IC50)", 0.10),
    ("CS(=O)(=O)N1Cc2nc(-c3cncc(F)c3)nc(NCCc3c[nH]c4ccccc34)c2C1", "log10(IC50)", 0.70),
    ("Fc1cncc(-c2nc3c(c(NCCc4c[nH]c5ccccc45)n2)CNCC3)c1", "log10(IC50)", 1.30),
    ("Fc1cncc(-c2nc3c(c(NCCc4nc5ccccc5[nH]4)n2)CCNC3)c1", "log10(IC50)", 3.50),
    ("Fc1cncc(-c2nc3c(c(NCCc4c[nH]c5ccccc45)n2)CCNC3)c1", "log10(IC50)", 1.20),
]

Could you tell me log10(IC50) for each of these molecules? They are listed below.
1. CNC(=O)N1CCc2c(nc(-c3cncc(F)c3)nc2NCCc2c[nH]c3ccccc23)C1
2. Cn1nccc1C(=O)N1CCc2c(nc(-c3cncc(F)c3)nc2NCCc2c[nH]c3ccccc23)C1

0.10
0.30
